experiment: yeast display, Sf9 membrane polyspecificity reagent, FACS + sequencing; frameworks hold sequencing errors
Experimental endpoint: polyreactivity (PSR sort gate)

Some solved cases for reference:
• QVQLVESGAGLVQAGGSLPLSCAASGSTFPKYAMGWYRQAPGKEREFVSAITSSGGRTFYADSVKGRFTISRDNAKNTVYLQMNSLKPEDTAVYYCAAYYYSWSGAFIYEYWGQGTQETVSS = high polyreactivity
• QVQLVESGGGLVQAGGSLRLSCAASGRIFNQYGMGWYRPAPGKERELVAAIRSGDSTNYADSVKGRFTISRDNAKNTVELQMNSLKPEDTAVYYCARDRPGDYAGYDYWGQGTQVTVSS = low polyreactivity
• QVQLVESGGGLVQAGGSLRLSCAASGGTFYRYAMGWYRQAPGKERELVAAISSNGGSTYYADSVKGRFTISRDNAKNTVYLQMNSLKPEDTAVYYCAAARDSIVYGQYDYWGQGTQVTVSS = low polyreactivity
• QVQLVESGGVLVQAVGSLRLSCAASGRIFYPYVMGWYRPAPGKERELVASITSGGGTYYADSVKGRFTISRDNAKNTVYLQMNSLKPEDTAGYYCNALAIWSEDWDHWISYADDYSGQGTQVTVSS = low polyreactivity
• QVQLVESGGGLVQAGGSHRLSCAASGRTFPGNAMGWYRQAPGKERDLVAAITSSGDTDYADSVKGRFKISRDNAKNTVDLQMNSLKTEDRAVYYCAKGYSYGRPWDIYYYWGHGTQVTVSS = low polyreactivity
• QVQLVESGGALVQAGGSLRLSCAASGFIFNHYAMGWYRQAPGKEREFVAAISWSGGSTYYADSVKGRFTISRDNAKNTVYLQMNSLKPEETAVYYCAASYNGLWHGDYDYWGQGTQVTVSS = low polyreactivity
• QVQLVESGGGLVQAGGSLRLSCAASGSIFPDYAMGWYRQAPGKERELVAAITWRDDSTYYADSVKGRFTISRDNAKNTVYLQMNSLKPEDTAVYYCNASALDPLFAKDDYWGQGTQVTVSS = low polyreactivity
• QVHLVESGGGLVQAGGSLRLSCAASGIFSRYAMRWYRQAPGKERELVDAISSGDSTNYADSVKGRFTISRDNAKNTVYLQMNSLKPEDTAVYYCATERSHLASGQGYYYVQTFYYWGQGTKVTVSS = low polyreactivity

Asked: Tell me the measured polyreactivity (PSR sort gate) of QVQLVESGGGLVQAGGSLRLSCAATGFTFFRYAMGWYRQARGKERELVAAITYSGSSTYYADSVKGRFTISRDNAKNTGYLQRNSLKPEDTAVYYCNAVQGFYSWVLYYYAYDYWGQGTQVTVSS , please.
Given back: high polyreactivity

Asked: Tell me the measured polyreactivity (PSR sort gate) of QVQLVESGGGLVQAGGSLGLSCAASGSTFHLYAMGWYRQAPGKEREFVAAIRGRGGNTYADSVKGRFTISRDNAKNTVSLQMNSLKPEDTAVYYCAAPLLRVLRSPYSYNYWGQGTQVTVSS , please.
Given back: low polyreactivity

Asked: Tell me the measured polyreactivity (PSR sort gate) of QVQLLESGGGLVQAGGSLRLSCAASGRIFSENAMGWYRQAPGKERELVAAITGNGGDTYYADSVKGRFTISRDNAMNTVYLQMNSLKPEDTAVYYSAAETGGLGGEYWGQGTHVTVSS , please.
Given back: low polyreactivity
